test: Inhibition of HCMV replication, plaque reduction assay (PRA, Hs-68 cells); assay type: cell-based, Human Cytomegalovirus (HCMV); conditions: human, Group 1 Table 1 entries, read-out: Cytotoxic at this concentration (footnote *, PRA CMV)
recorded_endpoint: MCC at 192 h (µM)
Dear colleague, please return just the value in µM, with no unit written.

Examples with answers:
Specify MCC at 192 h for "Nc1nc(-c2ccc(NC(=O)CNCc3ccccn3)cc2)cs1" and stop. 84

Identify measured MCC at 192 h associated with "CN(CC(=O)Nc1ccc(-c2csc(N)n2)cc1)C(=O)c1ccncc1" 110

Further cases:
Give MCC at 192 h for "CCC(CC)C(=O)N(CC(=O)Nc1ccc(-c2csc(N)n2)cc1)Cc1ccccc1" 18

###

biological target: HSV-1 helicase-primase (Human herpesvirus 1, UniProt P10189+P10236); construct: made in house; host or cells: Sf21 insect cells triply infected with recombinant baculoviruses (UL5, UL8, UL52); assay: HSV-1 DNA-dependent ATPase assay (inhibition of HSV-1 helicase-primase); type: biochemical; settings: Group 1 Table 1 entries
Sequence (P10192 whole entry): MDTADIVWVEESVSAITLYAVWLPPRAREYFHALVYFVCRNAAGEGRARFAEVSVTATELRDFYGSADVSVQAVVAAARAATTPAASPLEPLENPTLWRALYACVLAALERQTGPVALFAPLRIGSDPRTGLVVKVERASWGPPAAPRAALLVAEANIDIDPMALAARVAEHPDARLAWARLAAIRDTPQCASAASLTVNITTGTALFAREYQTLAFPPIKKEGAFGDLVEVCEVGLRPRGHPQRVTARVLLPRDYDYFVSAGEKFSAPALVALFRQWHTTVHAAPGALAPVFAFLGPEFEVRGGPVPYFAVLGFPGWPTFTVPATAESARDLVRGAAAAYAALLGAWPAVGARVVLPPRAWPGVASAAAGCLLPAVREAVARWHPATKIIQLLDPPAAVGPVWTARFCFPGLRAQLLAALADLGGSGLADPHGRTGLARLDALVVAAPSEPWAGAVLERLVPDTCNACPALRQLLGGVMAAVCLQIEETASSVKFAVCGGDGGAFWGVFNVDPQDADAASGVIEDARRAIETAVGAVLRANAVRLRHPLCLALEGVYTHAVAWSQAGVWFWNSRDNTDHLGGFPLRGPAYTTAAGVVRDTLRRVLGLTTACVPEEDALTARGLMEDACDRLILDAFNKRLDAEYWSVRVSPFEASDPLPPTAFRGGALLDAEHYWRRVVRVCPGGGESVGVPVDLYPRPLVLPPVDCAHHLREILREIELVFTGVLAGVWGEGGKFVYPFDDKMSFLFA
Sequence (P10236 whole entry): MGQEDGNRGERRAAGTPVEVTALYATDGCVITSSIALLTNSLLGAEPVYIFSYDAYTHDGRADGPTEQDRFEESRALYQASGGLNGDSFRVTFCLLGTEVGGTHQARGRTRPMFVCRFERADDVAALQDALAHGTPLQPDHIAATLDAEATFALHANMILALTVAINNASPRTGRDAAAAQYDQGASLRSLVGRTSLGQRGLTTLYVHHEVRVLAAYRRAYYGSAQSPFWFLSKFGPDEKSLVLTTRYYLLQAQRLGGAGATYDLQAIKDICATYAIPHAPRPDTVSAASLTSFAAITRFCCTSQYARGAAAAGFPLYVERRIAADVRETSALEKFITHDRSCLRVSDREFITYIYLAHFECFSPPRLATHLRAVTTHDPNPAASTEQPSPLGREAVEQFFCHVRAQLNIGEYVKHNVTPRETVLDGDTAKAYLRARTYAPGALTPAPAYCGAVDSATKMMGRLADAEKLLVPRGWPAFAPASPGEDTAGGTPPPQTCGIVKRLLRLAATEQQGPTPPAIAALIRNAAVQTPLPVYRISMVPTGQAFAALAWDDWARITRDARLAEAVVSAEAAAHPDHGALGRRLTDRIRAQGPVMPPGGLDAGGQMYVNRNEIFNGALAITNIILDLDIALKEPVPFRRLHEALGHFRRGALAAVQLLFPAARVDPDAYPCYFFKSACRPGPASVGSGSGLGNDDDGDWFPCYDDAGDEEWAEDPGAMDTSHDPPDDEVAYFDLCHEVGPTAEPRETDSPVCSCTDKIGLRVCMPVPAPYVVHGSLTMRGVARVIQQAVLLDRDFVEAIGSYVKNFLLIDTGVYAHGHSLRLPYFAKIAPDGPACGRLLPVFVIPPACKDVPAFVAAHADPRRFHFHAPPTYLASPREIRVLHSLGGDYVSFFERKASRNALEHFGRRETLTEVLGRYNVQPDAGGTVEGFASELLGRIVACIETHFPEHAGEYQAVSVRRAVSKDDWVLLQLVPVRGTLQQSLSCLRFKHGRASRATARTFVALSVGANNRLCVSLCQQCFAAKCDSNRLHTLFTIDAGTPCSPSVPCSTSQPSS
Sequence (P10189 whole entry): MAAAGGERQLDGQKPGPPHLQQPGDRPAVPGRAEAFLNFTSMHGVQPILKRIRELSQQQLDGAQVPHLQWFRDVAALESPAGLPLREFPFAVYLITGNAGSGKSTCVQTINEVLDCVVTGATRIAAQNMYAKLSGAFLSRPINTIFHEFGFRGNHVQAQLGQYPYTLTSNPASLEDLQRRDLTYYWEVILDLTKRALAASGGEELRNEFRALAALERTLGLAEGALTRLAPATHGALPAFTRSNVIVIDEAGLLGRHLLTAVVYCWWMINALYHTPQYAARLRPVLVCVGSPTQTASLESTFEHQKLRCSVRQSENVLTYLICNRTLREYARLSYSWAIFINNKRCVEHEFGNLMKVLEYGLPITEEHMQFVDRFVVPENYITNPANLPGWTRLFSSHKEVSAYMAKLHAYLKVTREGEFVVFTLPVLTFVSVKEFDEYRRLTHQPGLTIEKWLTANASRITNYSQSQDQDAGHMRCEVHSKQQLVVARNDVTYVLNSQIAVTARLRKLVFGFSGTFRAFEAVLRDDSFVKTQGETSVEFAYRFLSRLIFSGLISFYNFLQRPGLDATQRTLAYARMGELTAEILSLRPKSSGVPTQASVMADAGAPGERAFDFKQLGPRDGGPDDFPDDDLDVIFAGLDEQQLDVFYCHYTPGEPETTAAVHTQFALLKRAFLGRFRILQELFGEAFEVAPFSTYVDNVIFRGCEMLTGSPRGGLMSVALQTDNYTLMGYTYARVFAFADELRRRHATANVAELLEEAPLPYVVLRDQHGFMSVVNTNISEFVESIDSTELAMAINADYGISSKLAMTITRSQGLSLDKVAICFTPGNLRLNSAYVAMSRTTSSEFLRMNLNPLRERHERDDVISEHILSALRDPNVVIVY
pIC50: −log10 of the molar value.
Response key: Yes means pIC50 >= 6; No means pIC50 < 6.

Reference set, count: 5
Please tell me: is the compound Nc1nc(-c2ccc(NC(=O)CN(Cc3ccncc3)C(=O)c3ccc(F)cc3)cc2)cs1 [Example 73] at or over 6 in terms of pIC50? Yes

Has Cc1ccn(C)c1C(=O)N(CC(=O)Nc1ccc(-c2csc(N)n2)cc1)Cc1ccccc1 [Example 166] a recorded pIC50 greater than or equal to 6? Yes

Entry CC(C)(C)NC(=S)N(CC(=O)Nc1ccc(-c2csc(N)n2)cc1)Cc1ccccc1 [Example 93] : is its pIC50 no less than 6? Yes

Tell me whether pIC50 is at least 6 here: COc1ccc(CNCC(=O)Nc2ccc(-c3csc(N)n3)cc2)cc1 [Example 7] No

Check if pIC50 >= 6 (inclusive). Item: Nc1nc(-c2ccc(NC(=O)CN(Cc3cscn3)C(=O)c3ccncc3)cc2)cs1 [Example 161] No

***
Form field: pIC50 at least 6? Entry: CN(C)c1cccc2c(S(=O)(=O)N(CC(=O)Nc3ccc(-c4csc(N)n4)cc3)Cc3ccccc3)cccc12 [Example 98] Yes

Check if pIC50 >= 6 (inclusive). Item: Nc1nc(-c2ccc(NC(=O)CN(Cc3ccccc3F)Cc3ccccc3F)cc2)cs1 [Example 17] No

###

molecular target: HSV-1 helicase-primase (Human herpesvirus 1, UniProt P10189+P10236); construct: made in house; host or cells: Sf21 insect cells triply infected with recombinant baculoviruses (UL5, UL8, UL52); assay: HSV-1 DNA-dependent ATPase assay (inhibition of HSV-1 helicase-primase); type: biochemical; details: Group 1 Table 1 entries
Reported IC50 by item:
Give the quantity in µM, number only.

Identify measured IC50 corresponding to "CN(C)c1cccc2c(S(=O)(=O)N(CC(=O)Nc3ccc(-c4csc(N)n4)cc3)Cc3ccncc3)cccc12" 1.6

# return recorded IC50 for entry "CC1(C(=O)N(CC(=O)Nc2ccc(-c3csc(N)n3)cc2)Cc2ccccc2)CCCCC1" 0.035

Tell me IC50 reported for "Nc1nc(-c2ccc(NC(=O)CNCc3cccs3)cc2)cs1" 3.8

# evaluate next
Specify IC50 for "Nc1nc(-c2ccc(NC(=O)CN(CCc3ccncc3)C(=O)c3ccncc3)cc2)cs1" and stop. 9.2
